Assay System: T1, Human EphA2 (Ecto) (Human, UniProt P29317 24-537)
T1 construct: extracellular domain
T1 sequence (P29317 24-537): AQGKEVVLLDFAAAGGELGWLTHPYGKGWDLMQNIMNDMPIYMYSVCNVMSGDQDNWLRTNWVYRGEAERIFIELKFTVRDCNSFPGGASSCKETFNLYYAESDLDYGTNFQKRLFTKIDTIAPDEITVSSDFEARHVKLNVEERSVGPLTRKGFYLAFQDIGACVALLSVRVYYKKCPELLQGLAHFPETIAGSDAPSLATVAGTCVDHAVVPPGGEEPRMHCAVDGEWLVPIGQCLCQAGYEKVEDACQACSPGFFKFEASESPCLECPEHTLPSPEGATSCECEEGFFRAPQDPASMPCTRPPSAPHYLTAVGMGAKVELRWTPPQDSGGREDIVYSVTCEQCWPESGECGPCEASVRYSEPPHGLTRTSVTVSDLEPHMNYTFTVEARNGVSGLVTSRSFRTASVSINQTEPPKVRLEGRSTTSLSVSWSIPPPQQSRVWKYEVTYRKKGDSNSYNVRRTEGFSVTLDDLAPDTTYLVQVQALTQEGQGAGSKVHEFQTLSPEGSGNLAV
Measurement Notes: FP direct binding
Numbered stars: 1 amine (or outer) side, 2 acyl side, 3 side chain; on linkers, the order of the positions; unused ones are H or OH. Bridge positions count the residues as written; N and C are the ends. Square brackets hold non-standard residues; d marks the D form. Ends that are not written are not given here. 1Nal = N[C@@H](Cc1cccc2ccccc12)C(=O)O; TBMB = c1c(C[*:1])cc(C[*:3])cc1C[*:2]; Gly(cPent) = N[C@H](C(=O)O)C1CCCC1; hArg = N=C(N)NCCCC[C@H](N)C(=O)O; Tle = CC(C)(C)[C@H](N)C(=O)O; AF488 = AlexaFluor488 label; Aib = CC(C)(N)C(=O)O; βAla = NCCC(=O)O; Sar = CNCC(=O)O
Measurement Label: Kd (nM)
Give just the number in nM; leave the unit off.

{AF488-βAla}-[Sar][Sar][Sar][Sar][Sar][Sar][Sar][Sar][Sar][Sar]H[dD]VPCP[1Nal]G[Aib]F[1Nal]CP[Tle]NR[Aib]GC (linker 15-22-29 via TBMB) [Compound 144]
1.04

# binder {AF488-βAla}-[Sar][Sar][Sar][Sar][Sar][Sar][Sar][Sar][Sar][Sar]H[dD][Gly(cPent)]PCP[1Nal]G[Aib]F[1Nal]CP[Tle]N[hArg]P[dD]C (linker 15-22-29 via TBMB) [Compound 147] ; its Kd = 1.07
